Molecular target: T1, human CD24 (human, UniProt P25063 27-59, heavily glycosylated, GPI-anchored (as described in the background))
T1 construct: whole, on cells; Target of all cell-based FACS assays; also called hCD24; Cluster of differentiation 24
T1 chain (looked up): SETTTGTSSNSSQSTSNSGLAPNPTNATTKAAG
Test: FACS, Nalm1 cells
Threshold rule: Max MFI greater than or equal to 80000 is Condition met; below that, Condition not met.

State whether the measured Max MFI reaches 80000, counting equality as reaching it, for 110D4G4 (antibody, V domains shown, mouse monoclonal antibody; also called mAb-110D4G4) VH: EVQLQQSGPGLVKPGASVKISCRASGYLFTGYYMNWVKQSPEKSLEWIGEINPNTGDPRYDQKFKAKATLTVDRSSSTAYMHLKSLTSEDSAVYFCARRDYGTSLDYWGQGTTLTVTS VL: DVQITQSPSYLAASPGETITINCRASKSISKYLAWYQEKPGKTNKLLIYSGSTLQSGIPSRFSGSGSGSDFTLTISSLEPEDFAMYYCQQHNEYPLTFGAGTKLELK
Condition not met

Continue with SN3 (antibody, V domains shown) VH: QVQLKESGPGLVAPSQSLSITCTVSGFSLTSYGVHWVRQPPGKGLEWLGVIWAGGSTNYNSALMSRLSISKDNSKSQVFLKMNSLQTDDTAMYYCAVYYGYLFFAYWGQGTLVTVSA VL: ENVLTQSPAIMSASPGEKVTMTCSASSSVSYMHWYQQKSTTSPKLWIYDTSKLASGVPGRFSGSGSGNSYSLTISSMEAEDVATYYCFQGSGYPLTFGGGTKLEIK
Condition not met

Same again, this time with ch110D4G4-hIgG4 (antibody, V domains shown, chimeric; also called chAb110D4G4) VH: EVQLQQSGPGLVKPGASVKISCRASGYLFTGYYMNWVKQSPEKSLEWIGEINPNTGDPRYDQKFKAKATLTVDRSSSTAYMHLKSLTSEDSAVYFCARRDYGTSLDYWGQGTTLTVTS VL: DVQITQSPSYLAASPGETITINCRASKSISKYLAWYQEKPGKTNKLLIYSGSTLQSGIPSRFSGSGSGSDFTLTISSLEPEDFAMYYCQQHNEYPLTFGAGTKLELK
Condition met

Cool, now 73H5-1G2 (antibody, V domains shown, mouse monoclonal antibody) VH: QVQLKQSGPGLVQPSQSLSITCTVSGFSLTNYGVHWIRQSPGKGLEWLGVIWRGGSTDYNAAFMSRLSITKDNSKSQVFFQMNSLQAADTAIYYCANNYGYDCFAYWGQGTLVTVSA VL: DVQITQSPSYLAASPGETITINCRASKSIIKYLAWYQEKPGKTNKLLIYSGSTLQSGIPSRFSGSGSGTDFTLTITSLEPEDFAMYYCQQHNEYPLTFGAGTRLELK
Condition not met
